# maps each entry to its apparent KD of K4 kissing-loop reporter
- Test system: K4 kissing-loop RNA reporter;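 note: bound reporter read as fluorescence of individual clusters on recovered sequencing chips by microscopy, with normalized cluster intensities fitted with a binding model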
- procedure_text: apparent KD of K4 kissing-loop reporter; higher = weaker reporter binding
- stated_conditions: Eterna round: R107; input ligand: FMN 200 uM
measured_parameter: apparent KD of K4 kissing-loop reporter

seq_text="AGGGACGAUAGCGAUACCAGAGGUCGCAAAUUCGCGCCGUUUUUUAGGAAGUGAUGUUUUCUCCCUUGGCAGCGCCCUUAGAGUU [theeternabot_exclusion_KL_Theo_B_47]" measured_parameter="apparent KD of K4 kissing-loop reporter" result="881 nM"
seq_text=CGAUGGAUGGCAGGAUAUAGACAUUGAGUGAUGUUCGAUGAUUAUCCAUAUUCCCGUCACCUAUGACUAGAAGGGCCAUCCAUCG measured_parameter="apparent KD of K4 kissing-loop reporter" result="236 nM"
seq_text="CGAGUGAUGUUCGAAGAGUUGUUAAGCGAUACCAGCUAGGAAACUGGCCCUUGGCAGCGUAAUAAGUAAAUAAAUAAAUGAUCAC [whbob_Ex_Theo_A_th63]" measured_parameter="apparent KD of K4 kissing-loop reporter" result="287 nM"
seq_text="CGCAGUGAUGUUGCGAGUAGCUACAGGGAAGGAGCGUGCUAGAGCACAGGUAGGUCGCCCAGUGGCAGUGAUGUUGCCAACGGGU [Exclusion ARginine A GF 18]" measured_parameter="apparent KD of K4 kissing-loop reporter" result="132 nM"
seq_text="UGAUACCAGACUGAUACCAGCAGUGAUGUUGCUGAAAAUAAUAAAUGAGUCAAAGACUCGGGCCCUUGGCAGCAGUCUGGUAUCU [TheoBX 8 #SwitchBubble #StaticStem]" measured_parameter="apparent KD of K4 kissing-loop reporter" result="111 nM"
seq_text="AUUUUUUUGUCAGGAUAUUAGUAUGCAUUUAGUUUGUUAGUGAUGUUGAUAUUUUGUUUAUGUAUUUAAGAAGGGAUUUAGCGGU [iiikmullin]" measured_parameter="apparent KD of K4 kissing-loop reporter" result="384 nM"
seq_text="UGACUGGACUGAAGGAGCGAGCGAGACAAAGUCUCGAAAAUUCAGUGAUGUUGAAAUAUAACUCAGGUAGGUCGCAGUCUAGUCU [ArgBS 4 #SwitchBubble #StaticStem]" measured_parameter="apparent KD of K4 kissing-loop reporter" result="328 nM"
seq_text="AUUUAGACGAGUGAUGUUCGUGUUAUUACAGAGGAUAUGCGUAAAAGCAGAAGGCUGUAUUUAUAUUUGUUAUGUAAUUUUAAAA [JR_ExcFMNA_Sub006]" measured_parameter="apparent KD of K4 kissing-loop reporter" result="75.2 nM"
seq_text="AGGCCGAGCCAAGGAUAUUGUCAGAGUGAUGUUCGCCAAUACUCCAGCCGCGCCUCAUCAGCUGAGCAAGAAGGUGGUCCUCUCA [theeternabot_exclusion_KL_FMN_B_47]" measured_parameter="apparent KD of K4 kissing-loop reporter" result="244 nM"
seq_text=GGUAGCAUGGCGGCCGCCACUCGCUAGUGAUGUUAGCGGGAUGAGACAAAGGACAUAACUUUAUCGAGGACCGGGCCAUGCUACC measured_parameter="apparent KD of K4 kissing-loop reporter" result="88.2 nM"
seq_text="UGGAGUUGACGAAAAGUCAACUCCUGAGAUACCAGUGACGAAAGUCACCCUUGGCAGCUCACUGCCAGUGAUGUUGGAAGAUAAA [whbob_SS_Theo_A_w46]" measured_parameter="apparent KD of K4 kissing-loop reporter" result="208 nM"
seq_text="GGAUCCACCAGUGAUGUUGGAGAAAACUCGAAGGAUAUGACGAAAGUCAGAAGGUUGUAGACUGGACAAAGUCCGGUCGGAUCCA [FmnA 23 G30+U56]" measured_parameter="apparent KD of K4 kissing-loop reporter" result="843 nM"

The reported measurements were obtained from the supplement of paper PMC9170038.
